Tested on: T-47D breast
method.notes: NCI tumour cell line growth inhibition, 48 h
measured.attribute: TGI

Before answering, review these 5 worked examples.
> print(dat)
                                   compound  recorded.value
1  CCOC(=O)C(C)c1nc2cc(N3CCN(C)CC3)c(F)cc2[nH]c1=O (stereo not given)        > 100 µM
2  COc1ccc(-n2c(C)nc3c(c(C)nn3-c3ccccc3)c2=O)cc1         72.5 µM
3  CCC(=O)c1ccc2c(c1)N(CCCN1CCN(CCO)CC1)c1ccccc1S2         31.5 µM
4  COc1ccc(C(=O)CC(c2ccc(OC)c(OC)c2)c2c(O)c3ccccc3oc2=O)cc1OC (stereo not given)        > 100 µM
5  COc1ccc2c(c1)[C@@]1(C)CCC3c4ccc(O)cc4CCC3C1C2 (stereo not given in full)         26.8 µM

Response field TGI (T-47D breast) for item `CC(=N\N=C\c1ccccn1)/C(C)=N/N=C(C)/C(C)=N/N=C(C)/C(C)=N/N=C/c1ccccn1` : > 100 µM

Log: T-47D breast, compound CC(C)C1=CC23CCC4C(C)(C(=O)O)CCCC4(C)C2CC1C(C(=O)O)C3C(=O)O (stereo not given) , TGI = > 100 µM

* * *

Recorded TGI, one value per entry.
System: SNB-19 CNS
method.notes: NCI tumour cell line growth inhibition, 48 h
Write down the numeric answer in µM and omit the unit.

> print(dat)
                                compound  system.tested  recorded.value
1  N=C(N)c1ccc(-c2ccc(-c3ccc(F)cc3)o2)o1     SNB-19 CNS            4.05

Here's the next entry for you.
So for CN(C)CC(NC(NCS)C(=O)NCCNc1ccc(NCCNC(=O)C(NCS)NC(CN(C)C)OCCl)c2c1C(=O)c1c(O)ccc(O)c1C2=O)OCCl (stereo not given) , the logged TGI turned out to be 1.96

* * *

The reader will find reported TGI values listed item by item below.
System: COLO 205 colon
method.notes: NCI tumour cell line growth inhibition, 48 h

> print(dat)
                                   compound   system.tested  measured.attribute  recorded.value
1    Cc1ccc(/C(=C/C=C(C#N)C#N)Sc2ccccn2)cc1  COLO 205 colon                 TGI         3.79 µM
2  COc1ccc(-c2ccccc2)cc1-c1c(Nc2cc(Cl)cc(Cl)c2O)c(=O)c1=O  COLO 205 colon                 TGI         44.8 µM
3  COc1ccc2c(c1)[C@@]1(C)CCC3c4ccc(O)cc4CCC3C1C2 (stereo partly drawn)  COLO 205 colon                 TGI           31 µM
4  Cc1ccc2nc(Cl)c(/C=N/N3C(=O)/C(=C/c4ccc(N(C)C)cc4)N=C3c3ccccc3)cc2c1  COLO 205 colon                 TGI        > 100 µM
5  Cn1ccc(C(=O)NCCCCCNC(=O)c2ccn(C)c(=O)c2O)c(O)c1=O  COLO 205 colon                 TGI        > 100 µM
6  O=C(CCCn1ccnc1[N+](=O)[O-])NCCn1ccnc1[N+](=O)[O-]  COLO 205 colon                 TGI        > 100 µM

Memo: CCCCCCCCC/C=C1\CC(CO)(COC(=O)c2ccccc2)OC1=O (stereo not drawn) , reported TGI: 33 µM

Record C#CCOC(=O)C(N)CCCN=C(N)N (stereo not drawn) . Reported TGI: > 100 µM

Quick note, TGI for `COc1ccccc1NC(=O)C1=C(C)NC(C)=C(C(=O)Nc2ccccc2OC)C1c1cccc2c1OCO2` landed at > 100 µM

Value of TGI reported for the compound CN(C)CC(NC(NCS)C(=O)NCCNc1ccc(NCCNC(=O)C(NCS)NC(CN(C)C)OCCl)c2c1C(=O)c1c(O)ccc(O)c1C2=O)OCCl (stereo not drawn) is 3.28 µM
